Target: Crude porcine PL type II (pancreatic lipase) (Sus scrofa)
Sequence (P00591 1-450): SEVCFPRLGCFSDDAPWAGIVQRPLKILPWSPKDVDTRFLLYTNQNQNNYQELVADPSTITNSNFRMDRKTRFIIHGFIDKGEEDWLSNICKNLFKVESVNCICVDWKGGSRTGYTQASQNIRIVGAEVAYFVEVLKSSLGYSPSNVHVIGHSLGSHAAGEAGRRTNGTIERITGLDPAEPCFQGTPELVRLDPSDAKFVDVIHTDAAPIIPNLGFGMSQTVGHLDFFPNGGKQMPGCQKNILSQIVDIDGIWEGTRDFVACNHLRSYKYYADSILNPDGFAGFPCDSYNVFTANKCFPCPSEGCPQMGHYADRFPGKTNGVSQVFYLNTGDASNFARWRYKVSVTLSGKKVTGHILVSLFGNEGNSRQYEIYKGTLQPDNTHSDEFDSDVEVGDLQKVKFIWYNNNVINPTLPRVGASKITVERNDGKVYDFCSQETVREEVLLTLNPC
READOUT_TYPE: IC50

{"SMILES_REPR": "CCc1ccc(Nc2c(F)cc3c(=O)c(C(=O)O)cn(C4CC4)c3c2[N+](=O)[O-])cc1", "READOUT_TYPE": "IC50", "RESULT": "21.6 µM"}
